Where do these numbers come from? They come from ChEMBL document CHEMBL1145498.

Serine/threonine-protein kinase RIO2 (Homo sapiens): reported ΔTm for various compounds.
Could you give me the number in °C? Just the number is fine.

stdin: State the recorded ΔTm for this entry: `O=[N+]([O-])c1ccc(-c2nc(-c3ccc(F)cc3)c(-c3ccncc3)[nH]2)cc1`
stdout: 2.5

stdin: State the recorded ΔTm for this entry: `O=C(O)/C=C/c1cc(CO)ccc1CO`
stdout: 0.4

stdin: State the recorded ΔTm for this entry: `CCOc1cc(/C=C(\C#N)C(N)=O)cc(CSc2ccccc2)c1O`
stdout: 0.1

stdin: State the recorded ΔTm for this entry: `COc1cc2ncnc(Nc3ccc(F)c(Cl)c3)c2cc1OCCCN1CCOCC1`
stdout: 2

stdin: State the recorded ΔTm for this entry: `Cc1nc(Nc2ncc(C(=O)Nc3c(C)cccc3Cl)s2)cc(N2CCN(CCO)CC2)n1`
stdout: 2.3
